Assign MMAE release from ADC AVP0458-TCO-MMAE, Release (%) to each entry below.
System: ADC AVP0458-TCO-MMAE
assay remarks: Triggered drug (MMAE) release from ADC in 50% mouse plasma, HPLC-SIM-MS
applied conditions: 10 min; 50% mouse plasma, 37° C.
Your answer should be a plain number; it is taken to be in %.

Short answer for O=C(CCCC(=O)Nc1cnccc1-c1nnc(-c2ccncc2NC(=O)CCCC(=O)NCCOCCOCCOCCOCCOCCOCCOCCOCCOCCO)nn1)NCCOCCOCCOCCOCCOCCOCCOCCOCCOCCO : MMAE release from ADC AVP0458-TCO-MMAE, Release (%) was 19.4

Short answer for Oc1cnccc1-c1nnc(-c2ccncc2O)nn1 : MMAE release from ADC AVP0458-TCO-MMAE, Release (%) was 83.4

Short answer for Oc1cccnc1-c1nnc(-c2ncccc2O)nn1 : MMAE release from ADC AVP0458-TCO-MMAE, Release (%) was 80.1

Short answer for O=C(CCCC(=O)Nc1cccnc1-c1nnc(-c2ncccc2NC(=O)CCCC(=O)NCCOCCOCCOCCOCCOCCOCCOCCOCCOCCO)nn1)NCCOCCOCCOCCOCCOCCOCCOCCOCCOCCO : MMAE release from ADC AVP0458-TCO-MMAE, Release (%) was 2.1
